Measured inhibition of growth at 10 µM values are reported for all entries that follow.
test: Growth inhibition of human SF539 cells at 10 uM after 48 hrs by SRB assay relative to control; type: functional; conditions: SF-539, 48 h, read-out: GI
Provide only the numeric value, understood in %.

Below are worked cases with known answers.
TEST SMILES | MEASURE UNIT | inhibition of growth at 10 µM
COc1ccc(-n2c(SCc3cc(OC)c(OC)c(OC)c3)nc3ccc(C)cc3c2=O)c(OC)c1 | % | 80
COc1ccc(-n2c(SCc3cc(OC)c(OC)c(OC)c3)nc3ccc(Cl)cc3c2=O)cc1 | % | 12.7
COc1cc(CSc2nc3ccc(Cl)cc3c(=O)n2Cc2ccccc2)cc(OC)c1OC | % | 94.2

Query string: Item under review: COc1cc(CSc2nc3ccc(C)cc3c(=O)n2-c2ccccc2)cc(OC)c1OC . Reported inhibition of growth at 10 µM?
Result string: 96.5

###

assay: Growth inhibition of human HOP92 cells at 10 uM after 48 hrs by SRB assay relative to control; type: functional; settings: HOP-92, 48 h, read-out: GI
Here the recorded inhibition of growth at 10 µM is given for each entry.
Write down the numeric answer in % and omit the unit.

TEST SMILES | READING
COc1cc(CSc2nc3ccc(Cl)cc3c(=O)n2-c2ccccc2)cc(OC)c1OC | 11.1

Query string: Would you mind telling me what inhibition of growth at 10 µM value was observed for COc1ccccc1-n1c(SCc2cc(OC)c(OC)c(OC)c2)nc2ccc(Cl)cc2c1=O ?
Result string: 57.1

Query string: Note, next up: COc1cc(CSc2nc3ccc(C)cc3c(=O)n2-c2ccccc2)cc(OC)c1OC
Result string: 32.1

Query string: Next up: COc1ccc(CSc2nc3cc(OC)c(OC)cc3c(=O)n2-c2ccc(OC)cc2OC)cc1
Result string: 24.5

Query string: Now the molecule COc1cc2nc(SCc3cc(OC)c(OC)c(OC)c3)n(-c3ccccc3OC)c(=O)c2cc1OC
Result string: 34.2

Query string: Follow-up item: COc1cc2nc(SCc3cc(OC)c(OC)c(OC)c3)n(Cc3ccccc3)c(=O)c2cc1OC
Result string: 37.4

Query string: // next record COc1cc(CSc2nc3ccc(Cl)cc3c(=O)n2Cc2ccccc2)cc(OC)c1OC
Result string: 28.7

Query string: Would you mind doing COc1ccc(-n2c(SCc3cc(OC)c(OC)c(OC)c3)nc3ccc(Cl)cc3c2=O)cc1 as well?
Result string: 42.9

Query string: Also COc1ccc(-n2c(SCc3cc(OC)c(OC)c(OC)c3)nc3ccc(C)cc3c2=O)c(OC)c1 ?
Result string: 77.3

Query string: Another molecule to look at: COc1cc(CSc2nc3ccc(C)cc3c(=O)n2Cc2ccccc2)cc(OC)c1OC
Result string: 43.4

###

assay: Growth inhibition of human HCT15 cells at 10 uM after 48 hrs by SRB assay relative to control; type: functional; conditions: HCT-15, 48 h, read-out: GI
The following molecules are listed with their measured inhibition of growth at 10 µM values.
Note: unit % is implicit; provide only the numeric part.

# example entries with known answers
TEST SMILES | OUTCOME MEASURE | READING
COc1cc(CSc2nc3ccc(Cl)cc3c(=O)n2Cc2ccccc2)cc(OC)c1OC | inhibition of growth at 10 µM | 75.1
COc1ccc(CSc2nc3cc(OC)c(OC)cc3c(=O)n2-c2ccc(OC)cc2OC)cc1 | inhibition of growth at 10 µM | 19.4

Query string: What does the record list as inhibition of growth at 10 µM for COc1ccc(-n2c(SCc3cc(OC)c(OC)c(OC)c3)nc3ccc(C)cc3c2=O)cc1 ?
Result string: 66.4

Query string: Moving on to COc1cc2nc(SCc3cc(OC)c(OC)c(OC)c3)n(Cc3ccccc3)c(=O)c2cc1OC
Result string: 79.9

Query string: One more molecule: COc1ccc(-n2c(SCc3cc(OC)c(OC)c(OC)c3)nc3ccc(C)cc3c2=O)c(OC)c1
Result string: 76.4

Query string: What do you get for COc1cc(CSc2nc3ccc(Cl)cc3c(=O)n2-c2ccccc2)cc(OC)c1OC ?
Result string: 47.5
